- Target or system: Cytochrome P450 2D6 (Homo sapiens)
- Sequence (P10635 whole entry): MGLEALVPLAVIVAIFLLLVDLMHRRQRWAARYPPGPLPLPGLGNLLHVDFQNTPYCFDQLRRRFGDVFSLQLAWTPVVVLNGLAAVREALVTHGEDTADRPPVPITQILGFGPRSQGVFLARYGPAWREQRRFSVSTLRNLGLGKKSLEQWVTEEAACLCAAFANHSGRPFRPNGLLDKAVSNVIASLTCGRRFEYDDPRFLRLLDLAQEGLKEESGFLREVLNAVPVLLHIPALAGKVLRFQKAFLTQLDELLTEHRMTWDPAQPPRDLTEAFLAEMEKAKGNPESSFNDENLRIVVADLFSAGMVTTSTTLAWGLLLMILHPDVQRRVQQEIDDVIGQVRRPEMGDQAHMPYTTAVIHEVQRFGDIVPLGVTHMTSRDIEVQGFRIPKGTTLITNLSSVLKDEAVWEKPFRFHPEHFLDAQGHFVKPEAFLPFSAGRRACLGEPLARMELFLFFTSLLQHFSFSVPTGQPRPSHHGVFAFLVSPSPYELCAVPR
- Procedure text: Inhibition of recombinant human CYP2D6
pIC50: −log10 of the molar value.

| Molecule | pIC50 |
| --- | --- |
| CCC(c1nc2ncc(Cl)cc2[nH]1)[C@H]1CC[C@@H](c2ccnc3ccc(C(F)(F)F)cc32)CC1 (stereo partly specified) | 5.37 |

---

- Procedure text: Metabolic stability assessed as cynomolgus monkey UGT -mediated metabolism by measuring half life
- Format: ADME, Macaca fascicularis

| Compound | half-life |
| --- | --- |
| CCC(c1nc2ncc(Cl)cc2[nH]1)[C@H]1CC[C@@H](c2ccnc3ccc(C(F)(F)F)cc32)CC1 (stereo partly specified) | > 2 h |
